experimental protocol: Compound was tested for apparent dissociation constant at pH 10
Type: ADME
attribute measured: pKa
Answer with a number only.

Read off the recorded pKa for `O=C1Nc2[nH]cnc2S(=O)(=O)N1`
8.99

====

experimental protocol: Compound was tested for apparent dissociation constant at pH 9
Type: ADME
attribute measured: pKa
Answer with a number only.

Read off the recorded pKa for `NC1=NS(=O)(=O)c2nc[nH]c2N1`
6.84
